# Assay name: Plasma pharmacokinetics after oral gavage
# Format: in vivo
# Assay context: male, SD, rat, 3 mg/kg/day, Male, 3mg/kg/day gavage, Day 1

| Smiles notation | Tmax / min |
| --- | --- |
| CC(/C=C/[C@@H]1C[C@]1(C)c1ccc2c(c1)C(C)(C)CCC2(C)C)=C\C(=O)O | 30 |

* * *

# Assay name: Plasma pharmacokinetics after oral gavage
# Type: in vivo
# Assay context: male, SD, rat, 10 mg/kg/day, Male, 10 mg/kg/day gavage, Week 4, read-out: AUC0-24
Readout type: AUC(0-t) (ng·h/mL)

| Compound | Scale unit | Recorded number |
| --- | --- | --- |
| CC(/C=C/[C@@H]1C[C@]1(C)c1ccc2c(c1)C(C)(C)CCC2(C)C)=C\C(=O)O [IRX4204] | ng·h/mL | 422 |
